- System Tested: Cyclophilin B (CypB) (Homo sapiens (Human))
- Test Method Notes: Cyclophilin PPIase enzymatic assay (chymotrypsin coupled), CypB
- Format: biochemical
Readout Type: inhibition at 100 µM (%)
# output: bare number, implied unit %

Solved entries:
CCOC(=O)CNC(=O)NCc1ccc(F)cc1 [Compound F513] :: 23.3
Cc1noc(C2CCCN2C(=O)CNC(=O)NCc2ccc(N)nc2)n1 (centres unmarked) [Compound F593] :: 23.4
CCOC(=O)CNC(=O)NCc1ccc(O)cc1 [Compound F576] :: 18.4

According to the records, this compound Nc1ccc(CNC(=O)NCC(=O)N2CCOCC2)cc1 [Compound F544] displays inhibition at 100 µM of 26

According to the records, this compound Nc1ccc(CNC(=O)NCC(=O)NCCc2ccccc2)cc1 [Compound F547] displays inhibition at 100 µM of 15.2

###

Here the recorded inhibition at 100 µM is given for each entry.
- System Tested: Cyclophilin B (CypB) (Homo sapiens (Human), UniProt P23284)
- Sequence (P23284 34-216): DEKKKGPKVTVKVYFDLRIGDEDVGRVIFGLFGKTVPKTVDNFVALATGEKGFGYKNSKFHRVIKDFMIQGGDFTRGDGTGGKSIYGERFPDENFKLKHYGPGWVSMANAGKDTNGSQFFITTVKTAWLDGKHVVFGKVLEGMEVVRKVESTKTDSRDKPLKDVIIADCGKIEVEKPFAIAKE
- Test Method Notes: Cyclophilin PPIase enzymatic assay (chymotrypsin coupled), CypB
- Format: biochemical
Please provide the amount together with its unit, number first.

Solved entries:
CCOC(=O)C1CCCN(C(=O)CNC(=O)NCc2ccc(N)cc2)C1 (stereo not drawn) [Compound F545] :: 65.7%
COC(=O)[C@H]1CCCN1C(=O)CNC(=O)NCc1ccc(N)cc1 [Compound F558] :: 25.9%
CN(C(=O)CNC(=O)NCc1ccc(N)nc1)c1ccc(F)cc1 [Compound F597] :: 46.3%
CCN(O)C(=O)CNC(=O)NCc1ccc(N)nc1 [Compound F606] :: 17.3%
COc1cccc(CNC(=O)CNC(=O)NCc2ccc(N)cc2)c1 [Compound F563] :: 16.4%

According to the records, this molecule Nc1ccc(CNC(=O)NCC(=O)N2CCCC2)cc1 [Compound F537] displays inhibition at 100 µM of 24.5%

According to the records, this molecule CCOC(=O)CNC(=O)NCc1ccc(O)c(O)c1 [Compound F548] displays inhibition at 100 µM of 20.8%

###

- System Tested: Cyclophilin A (CypA) (Homo sapiens (Human), UniProt P62937)
- Sequence (P62937 whole entry): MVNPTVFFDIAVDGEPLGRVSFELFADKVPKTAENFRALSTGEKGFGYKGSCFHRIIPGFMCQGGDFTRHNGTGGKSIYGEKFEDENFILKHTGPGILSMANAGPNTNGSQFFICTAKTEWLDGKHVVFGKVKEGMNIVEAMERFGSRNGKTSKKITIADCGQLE
pIC50: −log10 of the molar value.
pIC50 of 6 or higher: 1. Under 6: 0.

COc1ccccc1C1CCCN1C(=O)CNC(=O)NCc1ccc(N)cc1 (stereo not shown) [Compound F609] :: 0
CSc1ccccc1C1CCCN1C(=O)C(CC(C)C)NC(=O)NCc1ccc(N)cc1 (stereo not shown) [Compound F712] :: 0
CSc1ccccc1C1CCCN1C(=O)C(C)NC(=O)NCc1ccc(N)cc1 (stereo not shown) [Compound F714] :: 0
CSc1ccccc1C1CCCN1C(=O)CNC(=O)NCc1ccc(N)cc1 (stereo not shown) [Compound F684] :: 1
CCN(OCc1ccccc1)C(=O)CNC(=O)NCc1ccc(N)cc1 [Compound F607] :: 0

Okay, next one:
Exercise: # bool: pIC50 of Nc1ccc(CNC(=O)NCC(=O)N2CCCC2c2ccccc2Cl)cc1 (stereo not shown) [Compound F673] >= 6
Key: 0

###

- System Tested: Cyclophilin D (CypD) (Homo sapiens, UniProt P30405, K175I)
- Sequence (P30405 30-207 K175I limits assumed): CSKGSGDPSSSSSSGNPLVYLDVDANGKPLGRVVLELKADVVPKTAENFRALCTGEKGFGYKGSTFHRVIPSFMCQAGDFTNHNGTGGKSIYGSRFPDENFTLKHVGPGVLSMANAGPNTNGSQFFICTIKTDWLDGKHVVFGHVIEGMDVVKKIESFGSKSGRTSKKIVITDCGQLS
- Test Method Notes: Cyclophilin PPIase enzymatic assay (chymotrypsin coupled), CypD
- Type: biochemical
- Experimental Parameters: CypD; read-out: CypD IC50
- Protocol: The protein was expressed in E. coli strain BL21(DE3). Bacteria were grown in LB medium at 37° C. and induced during 2 h with isopropyl-β-D-thiogalactopyranoside (IPTG) around OD 0.8. […] The reaction was initiated by adding 20 μL of 3.2 mM peptide substrate (Suc-Ala-Ala-cis-Pro-Phe-pNA) in LiCl/TFE solution with rapid inversion. […] Absorbance readings were collected every 1 s by spectrophotometer. […]
Readout Type: pIC50
On this scale, pIC50 is minus log10 of a concentration expressed in M (mol/L).

According to the records, this molecule `CCN(OCc1ccccc1)C(=O)CNC(=O)NCc1ccc(N)cc1` displays pIC50 of 4.52
